# System: NB-4
# Test protocol: Induction of cell differentiation in human NB4 cells assessed as induction of induction of cell surface marker CD14 expression at 1 nM after 48 hrs
# Format: functional, cell-based
# Experimental context: tested as the 2H-labelled form
Calls of active or inactive are those of the source. The rule behind the calls is not given here.
Measured metric: Activity

Structure as smiles | Measured result
C=C1/C(=C\C=C2/CCC[C@]3(C)[C@@H]([C@H](C/C=C\C(O)(C(F)(F)F)C(F)(F)F)CCCC(C)(C)O)CC[C@@H]23)C[C@@H](O)C[C@@H]1F | Active
C=C1/C(=C\C=C2/CCC[C@]3(C)[C@@H]([C@@H](CC#CC(O)(C(F)(F)F)C(F)(F)F)CCCC(C)(C)O)CC[C@@H]23)C[C@@H](O)C[C@@H]1O | Active
CC(C)(O)CCC[C@H](CC#CC(O)(C(F)(F)F)C(F)(F)F)[C@H]1CC[C@H]2/C(=C/C=C3C[C@@H](O)C[C@H](O)C3)CCC[C@]12C | Active

Hey, just so you know, these numbers are from ChEMBL document CHEMBL1152439.
